Where these numbers come from: ChEMBL document CHEMBL1152606

Each record here notes measured inhibition.
- Species: Bos taurus
- assay_procedure: Inhibition of bovine thymus p56LCK at 10 uM by liquid scintillation counting in presence of [33gammaP]ATP
property: inhibition (%)

entry_smiles	property	unit_info	inequality_symbol	value
O=C(CBr)c1scc(Br)c1Br	inhibition	%	<	10
O=C(CCl)c1c(Br)sc(Cl)c1Cl	inhibition	%	=	33
O=C(CCl)c1cscc1Cl	inhibition	%	=	31
O=C(CCl)c1scc(Br)c1Br	inhibition	%	=	20
O=C(CCl)c1cc(Cl)sc1Cl	inhibition	%	=	41
CC(=O)c1csc(C(=O)CCl)c1	inhibition	%	<	10
Cc1sc(C(=O)CCl)cc1C(=O)CCl	inhibition	%	=	17
O=C(CCl)c1cc(Br)c(Br)s1	inhibition	%	<	10
O=C(CCl)c1ccc(Cl)s1	inhibition	%	<	10
O=C(CCl)c1csc(C(=O)CCl)c1	inhibition	%	=	49
O=C(CCl)c1ccc(Br)s1	inhibition	%	<	10
O=C(CBr)c1cc(Br)c(Br)s1	inhibition	%	<	10
